# Lookup of reported inhibition at 0.001 µM keyed by entry
Tested on: Hepatitis C virus
Assay info: Anti-viral activity test (HCVcc, Type 2a), JFH 5a-Rluc luciferase in Huh7.5.1 cell line
Assay type: cell-based, Hepatitis C virus (HCVcc
Condition: Hepatitis C virus, Huh-7.5.1, read-out: inhibition rate
Please give a number only; it is taken to be in %.

Past entries and their recorded results:
Line notation	Tested system	Unit info	inhibition at 0.001 µM
COC(=O)N[C@H](C(=O)NC[C@H]1CN(c2ccc(-c3ccc(-c4cnc([C@@H]5CCCN5C(=O)[C@@H](NC(=O)OC)C(C)C)[nH]4)cc3)c(F)c2)C(=O)O1)C(C)C	Hepatitis C virus	%	44.3
COC(=O)N[C@H](C(=O)N1CCC[C@H]1c1ncc(-c2ccc(-c3ccc(N4C[C@H](Cn5ccnn5)OC4=O)cc3F)cc2)[nH]1)C(C)C	Hepatitis C virus	%	78.9
COC(=O)N[C@H](C(=O)N1CCC[C@H]1c1ncc(-c2ccc(-c3ccc(N4C[C@H](Cn5cc(-c6ccccc6)nn5)OC4=O)cc3F)cc2)[nH]1)C(C)C	Hepatitis C virus	%	95.2
COC(=O)N[C@H](C(=O)N1CCC[C@H]1c1ncc(-c2ccc(-c3ccc(N4C[C@H](CNC(C)=O)OC4=O)cc3F)cc2)[nH]1)C(C)C	Hepatitis C virus	%	27

Turning to the following compound.
Q. What is its inhibition at 0.001 µM for Hepatitis C virus? Entry: `COC(=O)N[C@H](C(=O)N1CCC[C@H]1c1ncc(-c2ccc(-c3ccc(N4C[C@H](Cn5cc(COCc6ccccc6)nn5)OC4=O)cc3F)cc2)[nH]1)C(C)C`
A. 97

====

Reported values of inhibition for individual entries
Test system: Hepatitis C virus
Assay info: Anti-viral activity test (HCVcc, Type 2a), JFH 5a-Rluc luciferase in Huh7.5.1 cell line
Assay type: cell-based
Condition: Huh-7.5.1, luciferase activity, negative control = 100%, Huh7.5.1 cells infected with JFH 5a-Rluc, read-out: HCV inhibition rate %
Please reply with the bare figure in % and do not write the unit itself.

Below are worked cases with known answers.
Line notation	Tested system	Unit info	inhibition
COCc1cn(C[C@H]2CN(c3ccc(-c4ccc(-c5cnc([C@@H]6CCCN6C(=O)[C@@H](NC(=O)OC)C(C)C)[nH]5)cc4)c(F)c3)C(=O)O2)nn1	Hepatitis C virus	%	83.3
COC(=O)N[C@H](C(=O)N1CCC[C@H]1c1ncc(-c2ccc(-c3ccc(N4C[C@H](Cn5ccnn5)OC4=O)cc3F)cc2)[nH]1)c1ccccc1	Hepatitis C virus	%	95.2
COC(=O)N[C@H](C(=O)NC[C@H]1CN(c2ccc(-c3ccc(-c4cnc([C@@H]5CCCN5C(=O)OC(C)(C)C)[nH]4)cc3)c(F)c2)C(=O)O1)C(C)C	Hepatitis C virus	%	58

Q. Consider the compound `COC(=O)N[C@H](C(=O)NC[C@H]1CN(c2ccc(-c3ccc(-c4cnc([C@@H]5CCCN5C(C)=O)[nH]4)cc3)c(F)c2)C(=O)O1)C(C)C` and give its measured inhibition.
A. 38.1

Q. Field request: inhibition | item: `CC(C)(C)OC(=O)N1CCC[C@H]1c1ncc(-c2ccc(-c3ccc(N4C[C@H](Cn5ccnn5)OC4=O)cc3F)cc2)[nH]1`
A. 31.7

====

The following compounds are listed with their measured inhibition values.
Tested on: Hepatitis C virus
Assay info: Anti-viral activity test (HCVcc, Type 2a), JFH 5a-Rluc luciferase in Huh7.5.1 cell line
Format: cell-based
Condition: Huh-7.5.1, luciferase activity, negative control = 100%, Huh7.5.1 cells infected with JFH 5a-Rluc, read-out: HCV inhibition rate %

Compound	inhibition
CC(=O)N1CCC[C@H]1c1ncc(-c2ccc(-c3ccc(N4C[C@H](Cn5ccnn5)OC4=O)cc3F)cc2)[nH]1 [Example 2]	32%
COC(=O)N[C@H](C(=O)N1CCC[C@H]1c1ncc(-c2ccc(-c3ccc(N4C[C@H](Cn5cc(COC(C)=O)nn5)OC4=O)cc3F)cc2)[nH]1)C(C)C [Example 8]	79.8%
COC(=O)N[C@H](C(=O)N1CCC[C@H]1c1ncc(-c2ccc(-c3ccc(N4C[C@H](CNC(C)=O)OC4=O)cc3F)cc2)[nH]1)C(C)C [Example 12]	99.8%
COC(=O)N[C@H](C(=O)N1CCC[C@H]1c1ncc(-c2ccc(-c3ccc(N4C[C@H](Cn5cc(CNC(C)=O)nn5)OC4=O)cc3F)cc2)[nH]1)C(C)C [Example 10]	32.8%

Q. Given COC(=O)N[C@H](C(=O)N1CCC[C@H]1c1ncc(-c2ccc(-c3ccc(N4C[C@H](Cn5cc(CO)nn5)OC4=O)cc3F)cc2)[nH]1)C(C)C [Example 5] , state its recorded inhibition.
A. 95.8%

Q. Tell me the measured inhibition of COC(=O)N[C@H](C(=O)NC[C@H]1CN(c2ccc(-c3ccc(-c4cnc([C@@H]5CCCN5C(=O)[C@@H](NC(=O)OC)C(C)C)[nH]4)cc3)c(F)c2)C(=O)O1)C(C)C [Example 15] , please.
A. 99.8%

Source: patent US9422274B2
